Listing of entries alongside the reported pIC50.
- SUBJECT OF TEST: Ubiquitin carboxyl-terminal hydrolase 19 (Homo sapiens)
- Sequence (O94966 whole entry): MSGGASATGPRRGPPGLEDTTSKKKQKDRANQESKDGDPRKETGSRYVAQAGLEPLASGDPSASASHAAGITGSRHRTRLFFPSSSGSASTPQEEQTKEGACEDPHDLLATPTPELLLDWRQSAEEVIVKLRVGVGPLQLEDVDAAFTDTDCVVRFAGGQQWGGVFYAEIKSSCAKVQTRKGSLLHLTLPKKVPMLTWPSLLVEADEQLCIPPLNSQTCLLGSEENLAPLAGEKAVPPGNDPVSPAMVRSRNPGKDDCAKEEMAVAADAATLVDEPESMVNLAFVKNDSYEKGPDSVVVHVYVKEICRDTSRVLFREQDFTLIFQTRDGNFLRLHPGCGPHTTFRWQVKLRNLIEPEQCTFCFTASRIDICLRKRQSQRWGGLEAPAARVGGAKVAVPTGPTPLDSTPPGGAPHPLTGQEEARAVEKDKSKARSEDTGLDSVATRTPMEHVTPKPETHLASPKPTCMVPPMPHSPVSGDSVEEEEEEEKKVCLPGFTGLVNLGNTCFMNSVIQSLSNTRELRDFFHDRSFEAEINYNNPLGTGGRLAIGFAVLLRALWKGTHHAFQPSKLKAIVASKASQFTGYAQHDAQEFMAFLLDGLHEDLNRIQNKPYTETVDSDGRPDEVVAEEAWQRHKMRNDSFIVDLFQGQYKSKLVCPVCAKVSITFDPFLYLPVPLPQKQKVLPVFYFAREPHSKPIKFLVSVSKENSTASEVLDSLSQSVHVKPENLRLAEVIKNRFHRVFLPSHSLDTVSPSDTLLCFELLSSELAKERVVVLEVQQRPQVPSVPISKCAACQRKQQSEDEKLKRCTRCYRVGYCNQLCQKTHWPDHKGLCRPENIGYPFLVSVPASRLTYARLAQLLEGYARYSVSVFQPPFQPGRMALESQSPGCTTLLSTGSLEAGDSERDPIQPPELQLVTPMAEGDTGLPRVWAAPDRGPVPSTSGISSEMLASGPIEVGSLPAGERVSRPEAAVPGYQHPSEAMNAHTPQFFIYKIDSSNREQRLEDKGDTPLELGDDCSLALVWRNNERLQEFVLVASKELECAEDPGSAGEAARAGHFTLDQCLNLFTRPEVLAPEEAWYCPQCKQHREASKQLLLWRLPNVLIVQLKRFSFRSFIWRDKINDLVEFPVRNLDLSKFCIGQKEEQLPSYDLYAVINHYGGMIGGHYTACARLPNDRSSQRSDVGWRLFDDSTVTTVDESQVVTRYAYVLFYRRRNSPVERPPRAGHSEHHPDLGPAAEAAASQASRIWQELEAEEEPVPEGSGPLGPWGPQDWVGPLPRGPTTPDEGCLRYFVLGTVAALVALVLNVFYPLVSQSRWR
- EXPERIMENTAL DETAILS: Inhibition of C-terminal His6-tagged recombinant human USP19 using iso-peptide ubiquitin-Lys-TAMRA as substrate incubated for 30 mins and measured after 90 mins by fluorescent polarization assay
pIC50: −log10 of the molar value.

## Input Give the measured pIC50 of O=C(C1CNCC1c1ccccc1)N1CC[C@@](O)(Cn2cnc(-c3ccccc3)cc2=O)C2(CCCC2)C1 (some centres undefined) .
## Output > 6.30

## Input // repeat for C[C@H](CC1CCCCC1)C(=O)N1CCC(O)(Cn2cc(C(=O)N(C)C)c(-c3ccc(CO)cc3)cc2=O)C2(CCCC2)C1 (some centres undefined) and report
## Output > 6.30

## Input // repeat for O=C([C@@H]1CCNC[C@H]1c1ccccc1)N1CCC(O)(Cn2cnc(-c3ccccc3)cc2=O)C2(CCCC2)C1 (some centres undefined) and report
## Output > 6.30

Switching to the query record.
## Input Give the measured pIC50 of `O=C(CCc1ccccc1)N1CCC(O)(Cn2cnc(-c3ccccc3F)cc2=O)CC1` .
## Output ≤ 4.30
